B1: MATN2 (parent)
chain: FIVDILQFLDIGPDVTRVGLLQYG

# Variants of: B1
# EXPERIMENTAL_DETAILS: protein stability index of a GFP-peptide fusion (GPS, HEK-293T) (PSI 1-6); higher = more stable;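 note: lentivirally expressed fusions sorted by FACS into six bins by GFP to DsRed ratio, PSI derived from sequencing read proportions per bin multiplied by bin number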
# CONDITION_LABEL: c terminus: a fixed tail appended
Entries and their protein stability index
Respond using a number only.

• D14N = 3.04

Ask | Give the reported protein stability index for this variant. D14P
Reply | 3.06

Ask | Give the reported protein stability index for this variant. F8P
Reply | 2.96

Reference source for all entries: the supplement of paper PMC10567573
